Tested on: PC-3 prostate
Test Summary: NCI-60 one-dose screen, 48 h (100 = growth as untreated, 0 = no growth, -100 = all killed)
Test Parameters: 10 µM unless noted
Method: Growth inhibition of the PC-3 human tumor cell line is measured as a screen for anti-cancer activity. Cells are grown in 96 well plates and exposed to the test compound for 48 hours. Compounds are tested at a single concentration, which is 10^-5 M for most compounds. The reported endpoint is percent growth (GI% or GIPRCNT), where numbers from 0 - 100% represent growth inhibition, and numbers from -100% - 0 represent cell death. For example, a value of 40 represents 60% growth inhibition. […]
This is part of a sample that, as a whole, favours compounds with a hit. Of some 83,000 tested, about 20% had one in any assay.
Measured growth, listed per entry for reference.
Experimental Readout: growth (%)

Compound | Experimental Readout | Observed Measurement
O=C1C=C(N2C3C4CCC(C4)C32)C(=O)C=C1c1ccccc1 (centres undefined) | growth | 81.7
COc1ccc2c(c1)c(-c1nc(-c3c[nH]c4ncccc34)cs1)cn2CCCCN1CCCCC1 | growth | -79
COc1cc2c(cc1OCCCCCn1c(-c3ccco3)nc3ccccc31)N=C[C@@H]1CCCN1C2=O | growth | 17.5
COC(=O)[C@@H](C)C[C@H](Cc1ccc2ccccc2c1)NC(=O)c1csc([C@@H](C[C@H](C(C)C)N(C)C(=O)[C@@H](NC(=O)[C@H]2CCCCN2C)C(C)C)OC(C)=O)n1 | growth | 47.3
